experimental-target: RSV F protein on respiratory syncytial virus (RSV-Long strain) (respiratory syncytial virus (Long strain)) (UniProt P12568)
Sequence (P12568 26-574): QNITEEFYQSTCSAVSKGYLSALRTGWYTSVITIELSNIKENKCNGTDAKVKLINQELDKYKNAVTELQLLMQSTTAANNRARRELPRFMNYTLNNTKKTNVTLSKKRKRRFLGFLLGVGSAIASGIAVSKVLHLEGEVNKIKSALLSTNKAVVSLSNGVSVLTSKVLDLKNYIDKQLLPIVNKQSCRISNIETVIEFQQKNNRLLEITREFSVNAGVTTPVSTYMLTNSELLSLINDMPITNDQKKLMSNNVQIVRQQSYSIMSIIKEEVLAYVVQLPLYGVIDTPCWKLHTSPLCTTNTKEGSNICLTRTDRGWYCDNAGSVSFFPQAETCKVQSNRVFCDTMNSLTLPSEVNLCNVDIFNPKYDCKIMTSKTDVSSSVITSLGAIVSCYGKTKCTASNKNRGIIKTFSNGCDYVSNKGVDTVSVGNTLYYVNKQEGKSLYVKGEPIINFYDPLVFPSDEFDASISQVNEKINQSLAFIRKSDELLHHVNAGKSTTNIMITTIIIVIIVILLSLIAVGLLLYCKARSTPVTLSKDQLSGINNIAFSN
test-details: cell-based or functional assay
Below: a set of entries, each annotated with reported Mean IC50 (Curve), RSV microneutralization.

Worked set:
A12a6 monoclonal antibody (antibody, V domains shown) VH: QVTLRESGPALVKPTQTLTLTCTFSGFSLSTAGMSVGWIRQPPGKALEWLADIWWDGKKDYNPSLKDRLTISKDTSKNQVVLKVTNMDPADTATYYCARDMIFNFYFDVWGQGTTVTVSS VL: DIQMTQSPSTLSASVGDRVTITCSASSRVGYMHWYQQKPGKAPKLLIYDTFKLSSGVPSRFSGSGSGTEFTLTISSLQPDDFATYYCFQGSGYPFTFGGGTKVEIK : 0.0357 mg/L
P12f4 monoclonal antibody (antibody, V domains shown) VH: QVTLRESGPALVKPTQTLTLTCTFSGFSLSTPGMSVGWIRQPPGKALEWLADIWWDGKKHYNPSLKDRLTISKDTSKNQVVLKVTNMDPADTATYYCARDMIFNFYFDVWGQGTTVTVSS VL: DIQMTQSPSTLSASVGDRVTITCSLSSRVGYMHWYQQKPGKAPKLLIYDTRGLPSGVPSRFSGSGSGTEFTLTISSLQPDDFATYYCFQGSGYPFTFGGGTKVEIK : 0.0242 mg/L
P12f4 Fab fragment (Fab, V domains shown) VH: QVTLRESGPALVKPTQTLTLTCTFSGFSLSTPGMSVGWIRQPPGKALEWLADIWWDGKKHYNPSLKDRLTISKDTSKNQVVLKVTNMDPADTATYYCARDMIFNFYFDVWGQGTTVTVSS VL: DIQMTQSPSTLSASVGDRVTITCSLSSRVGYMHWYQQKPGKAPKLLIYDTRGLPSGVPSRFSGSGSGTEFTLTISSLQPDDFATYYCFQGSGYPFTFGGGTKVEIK : 0.0464 mg/L
A8c7 Fab fragment (Fab, V domains shown) VH: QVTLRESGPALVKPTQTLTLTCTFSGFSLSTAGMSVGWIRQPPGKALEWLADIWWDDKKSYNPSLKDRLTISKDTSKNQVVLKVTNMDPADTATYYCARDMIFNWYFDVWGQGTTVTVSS VL: DIQMTQSPSTLSASVGDRVTITCSPSSRVGYMHWYQQKPGKAPKLLIYDTRYQSSGVPSRFSGSGSGTEFTLTISSLQPDDFATYYCFQGSGYPFTFGGGTKVEIK : 0.177 mg/L
A17d4(1) Fab fragment (Fab, V domains shown) VH: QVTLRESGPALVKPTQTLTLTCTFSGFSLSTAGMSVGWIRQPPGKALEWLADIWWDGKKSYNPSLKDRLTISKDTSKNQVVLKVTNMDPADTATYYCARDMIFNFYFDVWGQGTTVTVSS VL: DIQMTQSPSTLSASVGDRVTITCLPSSRVGYMHWYQQKPGKAPKLLIYDTMYQSSGVPSRFSGSGSGTEFTLTISSLQPDDFATYYCFQGSGYPFTFGGGTKVEIK : 0.0179 mg/L
A4B4 Fab fragment (Fab, V domains shown) VH: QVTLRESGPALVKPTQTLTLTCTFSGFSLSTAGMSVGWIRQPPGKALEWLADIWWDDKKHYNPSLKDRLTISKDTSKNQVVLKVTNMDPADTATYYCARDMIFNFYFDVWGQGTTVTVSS VL: DIQMTQSPSTLSASVGDRVTITCSASSRVGYMHWYQQKPGKAPKLLIYDTFFLDSGVPSRFSGSGSGTEFTLTISSLQPDDFATYYCFQGSGYPFTFGGGTKVEIK : 0.0414 mg/L
A12a6 Fab fragment (Fab, V domains shown) VH: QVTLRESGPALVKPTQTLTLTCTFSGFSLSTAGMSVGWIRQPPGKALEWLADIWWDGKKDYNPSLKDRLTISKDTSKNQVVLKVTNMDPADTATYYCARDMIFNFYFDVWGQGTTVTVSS VL: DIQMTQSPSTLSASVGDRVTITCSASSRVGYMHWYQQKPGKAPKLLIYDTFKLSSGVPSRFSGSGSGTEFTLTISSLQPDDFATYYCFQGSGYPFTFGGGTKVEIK : 0.0287 mg/L
A13c4 Fab fragment (Fab, V domains shown) VH: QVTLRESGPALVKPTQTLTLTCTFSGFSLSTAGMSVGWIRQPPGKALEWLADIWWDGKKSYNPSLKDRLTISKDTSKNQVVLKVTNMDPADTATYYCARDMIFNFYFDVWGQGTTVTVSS VL: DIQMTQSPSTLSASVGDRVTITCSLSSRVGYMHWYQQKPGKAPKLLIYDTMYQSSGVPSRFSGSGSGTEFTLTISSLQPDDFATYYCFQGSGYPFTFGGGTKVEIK : 0.0264 mg/L

Supply recorded Mean IC50 (Curve), RSV microneutralization for P11d4 Fab fragment (Fab, V domains shown) VH: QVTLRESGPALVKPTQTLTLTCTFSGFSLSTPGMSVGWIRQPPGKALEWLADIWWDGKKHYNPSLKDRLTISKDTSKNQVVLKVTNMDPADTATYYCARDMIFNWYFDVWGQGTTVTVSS VL: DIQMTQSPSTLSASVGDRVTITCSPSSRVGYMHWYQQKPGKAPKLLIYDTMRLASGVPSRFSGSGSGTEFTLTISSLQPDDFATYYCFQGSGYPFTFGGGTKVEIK here. > 1 mg/L

Tell me its Mean IC50 (Curve), RSV microneutralization given P11d4 monoclonal antibody (antibody, V domains shown) VH: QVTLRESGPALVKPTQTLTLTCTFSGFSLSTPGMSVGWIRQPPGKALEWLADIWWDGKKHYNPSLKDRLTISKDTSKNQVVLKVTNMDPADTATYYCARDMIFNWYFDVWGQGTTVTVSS VL: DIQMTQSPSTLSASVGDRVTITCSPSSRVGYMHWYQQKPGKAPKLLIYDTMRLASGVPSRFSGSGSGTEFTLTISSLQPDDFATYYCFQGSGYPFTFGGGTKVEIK as the entry. 0.0217 mg/L
